Origin of measurements: patent EP2276347B1

Assay: Specific surface area by nitrogen adsorption gas sorption (BET method)
Type: physicochemical
Conditions: toltrazuril particles, outgased in vacuum at room temperature
So I've got a bunch of compounds here, and I need their Specific surface area values.
Respond numerically; units are m^2/g and should not be typed.

Short answer for Cc1cc(-n2c(=O)[nH]c(=O)n(C)c2=O)ccc1Oc1ccc(SC(F)(F)F)cc1 [Example 2, toltrazuril] : Specific surface area was 15

Per the records, this compound ( Cc1cc(-n2c(=O)[nH]c(=O)n(C)c2=O)ccc1Oc1ccc(SC(F)(F)F)cc1 [micronized toltrazuril, toltrazuril] ) has Specific surface area equal to 14.1

// field: Specific surface area; key: Cc1cc(-n2c(=O)[nH]c(=O)n(C)c2=O)ccc1Oc1ccc(SC(F)(F)F)cc1 [Example 6, toltrazuril] ; value = 18.8

Short answer for Cc1cc(-n2c(=O)[nH]c(=O)n(C)c2=O)ccc1Oc1ccc(SC(F)(F)F)cc1 [Example 4, toltrazuril] : Specific surface area was 15.2

The compound listed as Cc1cc(-n2c(=O)[nH]c(=O)n(C)c2=O)ccc1Oc1ccc(SC(F)(F)F)cc1 [Example 3, toltrazuril] has a reported Specific surface area of 13.8

Specific surface area in this record for Cc1cc(-n2c(=O)[nH]c(=O)n(C)c2=O)ccc1Oc1ccc(SC(F)(F)F)cc1 [Example 5, toltrazuril] : 19.5

According to the records, this compound Cc1cc(-n2c(=O)[nH]c(=O)n(C)c2=O)ccc1Oc1ccc(SC(F)(F)F)cc1 [Example 1, toltrazuril] displays Specific surface area of 13.8
